- System: JURKAT
- Assay: selective drug sensitivity score (sDSS, relative to normal bone marrow) (sDSS (score)); higher = more potent and effective on the cell line relative to normal bone marrow cells;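 note: ALL cell lines in 384-well plates, five doses spanning 10,000-fold, each plate scaled between vehicle and 100 µmol/L benzalkonium chloride controls, sDSS an adapted area-under-curve metric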
- Condition info: 72 h
Below, each entry is listed with its recorded selective drug sensitivity score.
Lab note: jot the number down without any unit.

* CO[C@H]1C[C@@H]2CC[C@@H](C)[C@@](O)(O2)C(=O)C(=O)N2CCCC[C@H]2C(=O)O[C@H]([C@H](C)C[C@@H]2CC[C@@H](OCCO)[C@H](OC)C2)CC(=O)[C@H](C)/C=C(\C)[C@@H](O)[C@@H](OC)C(=O)[C@H](C)C[C@H](C)/C=C/C=C/C=C/1C [Everolimus] (top concentration 100 nM) | -1
* COCC[n+]1c2c(n(Cc3cnccn3)c1C)C(=O)c1ccccc1C2=O [Sepantronium_bromide] (top concentration 10000 nM) | 14.2
* C[C@@H](Nc1cc(F)cc(F)c1)c1cc(C(=O)N(C)C)cc2c(=O)cc(N3CCOCC3)oc12 [AZD-8186] (top concentration 1000 nM) | -0.26

Turning to the following compound.
Determine its reported selective drug sensitivity score: CC1(C)CCC(CN2CCN(c3ccc(C(=O)NS(=O)(=O)c4ccc(NCC5CCOCC5)c([N+](=O)[O-])c4)c(Oc4cnc5[nH]ccc5c4)c3)CC2)=C(c2ccc(Cl)cc2)C1 [Venetoclax] (top concentration 1000 nM)
-3.3

====

Below, each entry is listed with its recorded selective drug sensitivity score.
- Tested on: ALL-PO
- Assay: selective drug sensitivity score (sDSS, relative to normal bone marrow) (sDSS (score)); higher = more potent and effective on the cell line relative to normal bone marrow cells
- Condition info: 72 h

* CO[C@H](C(=O)[C@@H](O)[C@@H](C)O)[C@@H]1Cc2cc3cc(O[C@H]4C[C@@H](O[C@H]5C[C@@H](O)[C@H](O)[C@@H](C)O5)[C@@H](O)[C@@H](C)O4)c(C)c(O)c3c(O)c2C(=O)[C@H]1O[C@H]1C[C@@H](O[C@H]2C[C@@H](O[C@H]3C[C@](C)(O)[C@H](O)[C@@H](C)O3)[C@H](O)[C@@H](C)O2)[C@H](O)[C@@H](C)O1 [Plicamycin] (top concentration 10000 nM) | -15.9
* C[C@@H](Nc1cc(F)cc(F)c1)c1cc(C(=O)N(C)C)cc2c(=O)cc(N3CCOCC3)oc12 [AZD-8186] (top concentration 1000 nM) | 0.34

State recorded selective drug sensitivity score with ALL-PO, entry COC12C(COC(N)=O)C3=C(C(=O)C(C)=C(N)C3=O)N1CC1NC12 (stereo in doubt) [Mitomycin_C] (top concentration 10000 nM) , no comment.
-0.76

State recorded selective drug sensitivity score with ALL-PO, entry C[C@@]1(C(=O)Nc2ccc(F)nc2)CCCN1c1nc(Nc2cc(C3CC3)n[nH]2)c2cccn2n1 (top concentration 10000 nM) , no comment.
13

====

- Tested on: MOLT-16
- Assay: selective drug sensitivity score (sDSS, relative to normal bone marrow) (sDSS (score)); higher = more potent and effective on the cell line relative to normal bone marrow cells
- Condition info: 72 h
Parameter: selective drug sensitivity score

* COc1cc(N2CCN(C)CC2)ccc1Nc1nccc(-c2cn(C)c3cnccc23)n1 [AZ191] (top concentration 10000 nM) | -1.32
* Nc1cccc2c1C(=O)N(C1CCC(=O)NC1=O)C2=O (stereo not drawn) [Pomalidomide] (top concentration 10000 nM) | -0.26
* Cc1sc2c(c1C)C(c1ccc(Cl)cc1)=N[C@@H](CC(=O)NCCCCNC(=O)COc1cccc3c1C(=O)N(C1CCC(=O)NC1=O)C3=O)c1nnc(C)n1-2 (stereo partly drawn) [dBET1] (top concentration 10000 nM) | 1.42
* CCN(c1cc(-c2ccc(CN3CCOCC3)cc2)cc(C(=O)NCc2c(C)cc(C)[nH]c2=O)c1C)C1CCOCC1 [Tazemetostat] (top concentration 10000 nM) | -0.08
* O=C(Nc1c[nH]nc1-c1nc2ccc(CN3CCOCC3)cc2[nH]1)NC1CC1 [AT9283] (top concentration 1000 nM) | 8.22

Determine its reported selective drug sensitivity score: Cc1nc(=O)c2cc(CN(C)c3ccc(C(=O)N[C@@H](CCC(=O)O)C(=O)O)s3)ccc2[nH]1 [Raltitrexed] (top concentration 1000 nM)
25.3

Determine its reported selective drug sensitivity score: C[C@@H]1COCCN1c1cc(C2([S@](C)(=N)=O)CC2)nc(-c2cc[nH]c3nccc2-3)n1 [AZD6738] (top concentration 25000 nM)
13

Determine its reported selective drug sensitivity score: Clc1ccccc1C(c1ccccc1)(c1ccccc1)n1cccn1 [TRAM-34] (top concentration 1000 nM)
-0.08

Determine its reported selective drug sensitivity score: Cc1nc(NC(=O)N2CCC[C@H]2C(N)=O)sc1-c1ccnc(C(C)(C)C(F)(F)F)c1 [Alpelisib] (top concentration 2500 nM)
-0.72

Determine its reported selective drug sensitivity score: COc1cc(C)c(/C=C/C(C)=C/C=C/C(C)=C/C(=O)O)c(C)c1C [Acitretin] (top concentration 10000 nM)
-0.4

Determine its reported selective drug sensitivity score: CC(C)N(CCCNC(=O)Nc1ccc(C(C)(C)C)cc1)C[C@H]1O[C@@H](n2cc(Br)c3c(N)ncnc32)[C@H](O)[C@@H]1O [SGC0946] (top concentration 10000 nM)
0.78

Determine its reported selective drug sensitivity score: C[C@@H]1CCN(C(=O)CC#N)C[C@@H]1N(C)c1ncnc2[nH]ccc12 [Tofacitinib] (top concentration 5000 nM)
-7.86

Determine its reported selective drug sensitivity score: NC(=O)N1CCC(CC(=O)N2CCC([C@H]3c4ncc(Br)cc4CCc4cc(Cl)cc(Br)c43)CC2)CC1 [Lonafarnib] (top concentration 100000 nM)
11.2

Determine its reported selective drug sensitivity score: COc1cc([C@@H]2c3cc4c(cc3[C@@H](O[C@@H]3O[C@@H]5CO[C@@H](C)O[C@H]5[C@H](O)[C@H]3O)[C@H]3COC(=O)[C@H]23)OCO4)cc(OC)c1O [Etoposide] (top concentration 10000 nM)
28.9

Determine its reported selective drug sensitivity score: COc1cccc2c1C(=O)c1c(O)c3c(c(O)c1C2=O)C[C@@](O)(/C(CO)=N/NC(=O)CCCCCN1C(=O)C=CC1=O)C[C@@H]3O[C@H]1C[C@H](N)[C@H](O)[C@H](C)O1 [Aldoxorubicin] (top concentration 1000 nM)
16.6

Determine its reported selective drug sensitivity score: Nc1ncnc2c1nc(N)n2[C@@H]1O[C@H](CO)[C@@H](O)[C@H]1O [8-amino-adenosine] (top concentration 50000 nM)
5.68

Determine its reported selective drug sensitivity score: C[C@@H]1COC(Nc2ccc3ncnc(Nc4ccc(OCc5nccs5)c(Cl)c4)c3c2)=N1 [Varlitinib] (top concentration 10000 nM)
-0.18

Determine its reported selective drug sensitivity score: COc1cc2c(cc1-c1c(C)noc1C)ncc1[nH]c(=O)n([C@H](C)c3ccccn3)c12 [I-BET151] (top concentration 10000 nM)
5.96

====

- Test system: MHH-CALL-2
- Assay: selective drug sensitivity score (sDSS, relative to normal bone marrow) (sDSS (score)); higher = more potent and effective on the cell line relative to normal bone marrow cells
- Condition info: 72 h
Parameter: selective drug sensitivity score

Worked examples follow.
• Nc1ncnc2c1c(-c1cccc(OCc3ccccc3)c1)cn2[C@H]1C[C@@H](CN2CCC2)C1 [NVP-AEW541] (top concentration 10000 nM) = 3.28
• CNC(=O)c1ccc(N2C(=S)N(c3cnc(C#N)c(C(F)(F)F)c3)C(=O)C23CCC3)cc1F [Apalutamide] (top concentration 10000 nM) = 0

Determine its reported selective drug sensitivity score: CC(=O)c1c(C)c2cnc(Nc3ccc(N4CCNCC4)cn3)nc2n(C2CCCC2)c1=O [Palbociclib] (top concentration 10000 nM)
3.68

====

- Test system: COG-LL-317
- Assay: selective drug sensitivity score (sDSS, relative to normal bone marrow) (sDSS (score)); higher = more potent and effective on the cell line relative to normal bone marrow cells
- Condition info: 72 h
Parameter threshold = -0.08. Response is yes (1) when selective drug sensitivity score meets or exceeds it, else no (0).

* Cc1cc(Nc2nc(N[C@@H](C)c3ncc(F)cn3)ncc2Cl)[nH]n1 [AZD1480] (top concentration 1000 nM) | no (0)
* COC(=O)N[C@@H](C)CNc1nccc(-c2cn(C(C)C)nc2-c2cc(Cl)cc(NS(C)(=O)=O)c2F)n1 [Encorafenib] (top concentration 1000 nM) | yes (1)
* COc1cccc2c1C(=O)c1c(O)c3c(c(O)c1C2=O)C[C@@](O)(/C(CO)=N/NC(=O)CCCCCN1C(=O)C=CC1=O)C[C@@H]3O[C@H]1C[C@H](N)[C@H](O)[C@H](C)O1 [Aldoxorubicin] (top concentration 1000 nM) | yes (1)
* COc1cc(Nc2ncc(F)c(Nc3ccc4c(n3)NC(=O)C(C)(C)O4)n2)cc(OC)c1OC [Tamatinib] (top concentration 10000 nM) | no (0)
* Cc1nc2cccc(N)c2c(=O)n1C1CCC(=O)NC1=O (centres undefined) [Avadomide (CC122)] (top concentration 10000 nM) | yes (1)

Does the reported selective drug sensitivity score for COc1ccc(COc2cc3oc(=O)c4cc(C(C)O)ccc4c3cc2OC)cc1 (centres undefined) [Palomid-529] (top concentration 10000 nM) fall at or above the -0.08 mark?
yes (1)

Does the reported selective drug sensitivity score for CNC(=O)c1ccc(N2C(=S)N(c3cnc(C#N)c(C(F)(F)F)c3)C(=O)C23CCC3)cc1F [Apalutamide] (top concentration 10000 nM) fall at or above the -0.08 mark?
yes (1)

Does the reported selective drug sensitivity score for O=C(O)CC[C@H]1CC[C@@](c2cc(F)ccc2F)(S(=O)(=O)c2ccc(Cl)cc2)CC1 [MK-0752] (top concentration 1000 nM) fall at or above the -0.08 mark?
yes (1)

Does the reported selective drug sensitivity score for C=CC(=O)Nc1cccc(Oc2nc(Nc3ccc(N4CCN(C)CC4)cc3)nc3ccsc23)c1 [Olmutinib] (top concentration 1000 nM) fall at or above the -0.08 mark?
yes (1)

Does the reported selective drug sensitivity score for Cn1ncc(Cl)c1-c1cc(C(=O)N[C@H](CN)Cc2ccc(F)c(F)c2)oc1Cl [Uprosertib] (top concentration 10000 nM) fall at or above the -0.08 mark?
yes (1)
